B1: Exo70 wild type, HA-tagged and Flag-tagged copies co-expressed [rat] / itself (parent)
chain: MIPPQEASARRREIEDKLKQEEETLSFIRDSLEKSDQLTKNMVSILSSFESRLMKLENSIIPVHKQTENLQRLQENVEKTLSCLDHVISYYHVASDTEKIIREGPTGRLEEYLGSMAKIQKAVEYFQDNSPDSPELNKVKLLFERGKESLESEFRSLMTRHSKVISPVLVLDLISADDELEVQEDVVLEHLPESVLQDVIRISRWLVEYGRNQDFMNVYYQIRSSQLDRSIKGLKEHFRKSSSSSGVPYSPAIPNKRKDTPTKKPIKRPGRDDMLDVETDAYIHCVSAFVRLAQSEYQLLMGIIPEHHQKKTFDSLIQDALDGLMLEGENIVSAARKAIIRHDFSTVLTVFPILRHLKQTKPEFDQVLQGTAASTKNKLPGLITSMETIGAKALEDFADNIKNDPDKEYNMPKDGTVHELTSNAILFLQQLLDFQETAGAMLASQETSSSATSYNSEFSKRLLSTYICKVLGNLQLNLLSKSKVYEDPALSAIFLHNNYNYILKSLEKSELIQLVAVTQKTAERSYREHIEQQIQTYQRSWLKVTDYIAEKNLPVFQPGVKLRDKERQMIKERFKGFNDGLEELCKIQKAWAIPDTEQRDKIRQAQKSIVKETYGAFLHRYSSVPFTKNPEKYIKYRVEQVGDMIDRLFDTSA

variants of: B1; test: co-immunoprecipitation (IP: HA, blot: Flag); details: with itself; 293T cells; with Myc-ULK1 co-expressed; parent: 0.35
measured_attribute: response (relative band intensity)

chain 1 S89A = 1
chain 1 S59A = 1.16

A: chain 1 S47A
B: chain 1 S47A S59A S89A
Consider entries A and B . Which has the numerically lower response (relative band intensity)? Field: selected label. Fill in the label of the entry you choose. A
